Origin of values: patent US20120135923A1

# target-of-assay: human melanocortin receptor subtype 3 (hMC3-R) (human), P41968
# Sequence (P41968 whole entry): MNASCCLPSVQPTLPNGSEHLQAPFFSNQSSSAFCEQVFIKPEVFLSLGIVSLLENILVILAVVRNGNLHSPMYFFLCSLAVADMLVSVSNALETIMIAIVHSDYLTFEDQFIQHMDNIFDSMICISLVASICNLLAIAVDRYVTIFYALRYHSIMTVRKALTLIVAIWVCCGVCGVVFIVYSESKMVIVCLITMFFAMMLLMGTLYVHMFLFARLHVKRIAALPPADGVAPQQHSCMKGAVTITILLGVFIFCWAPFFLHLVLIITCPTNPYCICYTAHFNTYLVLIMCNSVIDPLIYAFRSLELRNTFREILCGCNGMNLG
# assay-text: [125I]-NDP-α-MSH competition, membranes
Bridge positions count the residues as written; N and C are the ends. Square brackets hold non-standard residues; d marks the D form. Ends that are not written are not given here. d2Nal = N[C@H](Cc1ccc2ccccc2c1)C(=O)O; Bta = N[C@@H](Cc1csc2ccccc12)C(=O)O; Nle = CCCC[C@H](N)C(=O)O
Recorded Ki, one value per entry.
result-type: Ki (nM)

INSERT INTO measurements (binder, result_type, quantitative_readout) VALUES
  ('Ac-CEH[d2Nal]R[Bta]ACPPKD-NH2 (disulfide 1-8; SMILES CC(=O)N[C@H]1CSSC[C@@H](C(=O)N2CCC[C@H]2C(=O)N2CCC[C@H]2C(=O)N[C@@H](CCCCN)C(=O)N[C@@H](CC(=O)O)C(N)=O)NC(=O)[C@H](C)NC(=O)[C@H](Cc2csc3ccccc23)NC(=O)[C@H](CCCNC(=N)N)NC(=O)[C@@H](Cc2ccc3ccccc3c2)NC(=O)[C@H](Cc2c[nH]cn2)NC(=O)[C@H](CCC(=O)O)NC1=O) [Ac-c(Cys-Glu-His-D-2-Nal-Arg-Bal-Ala-Cys)-Pro-Pro-Lys-Asp-NH2]', 'Ki', 23),
  ('[Nle]GC[dA]H[dF]RWC-NH2 (disulfide 3-9; also: N-terminal hydantoin: C(O) bridges X1 N-terminal N and G2 backbone N, bridge at N via C(O), other end not in the chain) [Hydantoin(C(O)-(Nle-Gly))-c(Cys-D-Ala-His-D-Phe-Arg-Trp-Cys)-NH2]', 'Ki', 46.4),
  ('GGC[dA]H[dF]RWC-NH2 (disulfide 3-9; also: hydantoin ring from C(O) with Gly1-Gly2) [Hydantoin(C(O)-(Gly-Gly))-c(Cys-D-Ala-His-D-Phe-Arg-Trp-Cys)-NH2]', 'Ki', 69.7),
  ('VGC[dA]H[dF]RWC-NH2 (disulfide 3-9; also: hydantoin ring from C(O) with Val1-Gly2) [Hydantoin(C(O)-(Val-Gly))-c(Cys-D-Ala-His-D-Phe-Arg-Trp-Cys)-NH2]', 'Ki', 160),
  ('GRC[dA]H[dF]RWC-NH2 (disulfide 3-9; also: hydantoin ring from C(O) with Gly1-Arg2) [Hydantoin(C(O)-(Gly-Arg))-c(Cys-D-Ala-His-D-Phe-Arg-Trp-Cys)-NH2]', 'Ki', 1.7),
  ('IGC[dA]H[dF]RWC-NH2 (disulfide 3-9; also: hydantoin ring from C(O) with Ile1-Gly2) [Hydantoin(C(O)-(Ile-Gly))-c(Cys-D-Ala-His-D-Phe-Arg-Trp-Cys)-NH2]', 'Ki', 194);
